Test system: Providencia stuartii
measurement.protocol: Tested in vitro for inhibitory activity against gram negative bacteria Providencia stuartii CNUR 5 strain
Type: functional
The following compounds are shown together with reported MIC values.
State just the number; it will be interpreted in µg/mL.

Study these solved cases before continuing.
[
  {
    "compound": "CC1CN(c2cc3c(cc2N)c(=O)c(C(=O)O)cn3C2CC2)CCN1 (stereo not given)",
    "target.desc": "Providencia stuartii",
    "reported": 16
  },
  {
    "compound": "Nc1cc2c(=O)c(C(=O)O)cn(C3CC3)c2cc1N1CCCC1",
    "target.desc": "Providencia stuartii",
    "reported": 128
  },
  {
    "compound": "O=C(O)c1cn(C2CC2)c2cc(N3CCNCC3)c(F)cc2c1=O [CIPROFLOXACIN]",
    "target.desc": "Providencia stuartii",
    "reported": 0.06
  },
  {
    "compound": "CC(C)(C)n1cc(C(=O)O)c(=O)c2cc(N)c(N3CCCC3)cc21",
    "target.desc": "Providencia stuartii",
    "reported": 64
  },
  {
    "compound": "CC(C)(C)n1cc(C(=O)O)c(=O)c2cc(N)c(N3CCN(c4ccccn4)CC3)cc21",
    "target.desc": "Providencia stuartii",
    "reported": 128
  },
  {
    "compound": "CN1CCN(c2cc3c(cc2N)c(=O)c(C(=O)O)cn3C(C)(C)C)CC1",
    "target.desc": "Providencia stuartii",
    "reported": 4
  },
  {
    "compound": "Nc1cc2c(=O)c(C(=O)O)cn(C3CC3)c2cc1N1CCSC1",
    "target.desc": "Providencia stuartii",
    "reported": 128
  },
  {
    "compound": "Nc1cc2c(=O)c(C(=O)O)cn(C3CC3)c2cc1N1CCNCC1",
    "target.desc": "Providencia stuartii",
    "reported": 32
  }
]

Any idea what its MIC is? The compound is CC(C)(C)n1cc(C(=O)O)c(=O)c2cc(N)c(N3CCc4ccccc4C3)cc21
4

Now the same for Nc1cc2c(=O)c(C(=O)O)cn(C3CC3)c2cc1NC1CC1
128

* * *

Test system: Staphylococcus epidermidis
measurement.protocol: Tested in vitro for inhibitory activity against gram positive bacteria Staphylococcus epidermidis HCF berset C strain
Type: functional
Rule for this label: yes (1) means MIC is less than 8 µg/mL; no (0) means MIC is at least 8 µg/mL.

[
  {
    "compound": "C[C@@H]1CN(c2cc3c(cc2N)c(=O)c(C(=O)O)cn3C2CC2)C[C@H](C)N1",
    "class.name": "yes (1)"
  }
]

I'd appreciate it if you could check whether CC(=O)NC1CCN(c2cc3c(cc2N)c(=O)c(C(=O)O)cn3C2CC2)C1 (configuration not stated) has MIC smaller than 8 µg/mL.
no (0)

Now the same for Nc1cc2c(=O)c(C(=O)O)cn(C3CC3)c2cc1NC1CC1
no (0)

Now the same for Nc1cc2c(=O)c(C(=O)O)cn(C3CC3)c2cc1N1CCSCC1
yes (1)

Now the same for CN1CCN(c2cc3c(cc2N)c(=O)c(C(=O)O)cn3C2CC2)CC1
yes (1)

Now the same for Nc1cc2c(=O)c(C(=O)O)cn(-c3ccc(F)cc3)c2cc1N1CCSCC1
yes (1)

Now the same for CN1CCN(c2c(N)c(N)c3c(=O)c(C(=O)O)cn(C4CC4)c3c2F)CC1
yes (1)

Now the same for CN1CCN(c2nc3c(c(N)c2N)c(=O)c(C(=O)O)cn3C2CC2)CC1
yes (1)
